biological target: T1, soluble human tissue factor (extracellular domain of hTF with C-terminal RGS-His6 tag) (human, UniProt P13726 33-251); assay: BIAcore X, soluble hTF immobilized on CM5 chip, mAb injected
T1 construct: leader left out (range computed from the stated lengths); Expressed in HEK293, purified on Ni-agarose and by gel filtration; also called soluble hTF; recombinant soluble hTF
Listing: Kd of selected binders
Numeric answer only, unit nM assumed.

Record excerpt, results attached:
monoclonal anti-TF antibody TF278 (hybridoma cell line TF278, ATCC PTA-5676) (antibody, IgG1, V domains shown) VH: EVQLQQSGAELMKPGASVKISCKATGYTFSSYWIEWVKQRPGHGLEWIGEILPGSASTKYNEKFKGKATFTADTSSNTAYMQLSSLTSEDSAVYYCARDYYYGSSYGFAYWGQGTLVTVSS VL: QAVVTQESALTTSPGETVTLTCRSSTGAVTTSNYANWVQEKPDHLFTGLIGGTNNRGPGVPARFSGSLIGDKAALTITGAQTEDEAVYFCALWYSNHWVFGGGTKLTVLG ... 0.789
monoclonal anti-TF antibody TF196 (hybridoma cell line TF196, ATCC PTA-5196) (antibody, V domains shown, Mouse hybridoma IgG) VH: QVQLKQSGPELEKPGASVKISCKASGYSFTGYNMNWVKQSNGKSLEWIGNIDPYYGGTSYNQKFKGKATLTVDKSSNTAYMHLKSLTSEDSAVYYCARDSSSWFAYWGQGTLVTVSA VL: DIQLTQSPASLSASVGETVTITCRASGNIHNYLAWYQQKQGKSPQLLVYNAKTLADGVPSRFSGSGSGTQYSLKINSLQPEDFGSYYCQHFWITPWTFGGGTKLEI ... 66.3

Request the reported Kd associated with monoclonal anti-TF antibody TF277 (hybridoma cell line TF277, ATCC PTA-5675) (antibody, IgG1, V domains shown) VH: QVQLQQPGAELVKPGASVKLSCKTSGYTFTSYWMHWVKQRPGQGLEWIGEIDPSDSYTNYNQKFKGKATLTVDKSSSTAYMQLSSLTSEDSAVYYCTYYVNYYAMDYWGQGTSVTVSS VL: QIVLTQSPAIMSASLGEEITLTCSASSSVSYMHWYQQKSGTSPKLLIYSTSNLASGVPSRFSGSGSGTFYSLTISSVEAEDAADYYCHQWSSYPYTFGGGTKLEIK
7.14

# lookup: Kd of monoclonal anti-TF antibody TF392 (hybridoma cell line TF392, ATCC PTA-5677) (antibody, IgG1, V domains shown) VH: QVQLKESGAELMKPGASVKISCKATGYTFSSYWIEWVKQRPGHGLEWIGEILPGSGSTNYNEKFKGKATFTADTSSNTAYMQLSSLTSEDSAVYYCARDRNGYVNYFDSWGQGTTLTVSS VL: QAVVTQESALTTSPGETVTLTCRSSTGAVTTSNYANWVQEKPDHLFTGLIGGTNNRAPGVPARFSGSLIGDKAALTITGAQTEDEAIYFCALWYSNHWVFGGGTKLTVLG
2.46

Returns the measured Kd for the input binder. Input: monoclonal anti-TF antibody TF260 (hybridoma cell line TF260, ATCC PTA-5197) (antibody, V domains shown) VH: QVQLKQSGAELMKPGASVKISCKATGYTFSSYWIEWVKQRPGHGLEWIGEILPGSGSTNYNEKFKGKATFTADTSSNTAYMQLSSLTSEDSAVYYCAREDRYDGDYWGQGTTLTVS VL: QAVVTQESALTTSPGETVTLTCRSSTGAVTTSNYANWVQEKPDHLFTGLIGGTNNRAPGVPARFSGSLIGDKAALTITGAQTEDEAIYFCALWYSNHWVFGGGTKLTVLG
19.3

Bench note: what Kd did monoclonal anti-TF antibody TF9 (hybridoma cell line TF9, ATCC PTA-5674) (antibody, V domains shown) VH: DVKLQESGPDLVKPSQSLSLTCTVTGYSITSGYSWHWIRQFPGNKLEWMGYIHYSGSTKYNPSLKSRISITRDTSKNQFFLQLNSVTTEDTATYYCARLWSWYFDVWGAGTTVTVSS VL: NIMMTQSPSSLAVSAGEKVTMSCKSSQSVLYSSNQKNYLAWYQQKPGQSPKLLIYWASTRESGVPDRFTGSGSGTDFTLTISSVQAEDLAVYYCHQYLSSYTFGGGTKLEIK show?
1.84
